// provenance: PubChem BioAssay (NCI)

# Test system: SNB-75 CNS
# assay text: NCI tumour cell line growth inhibition, 48 h
Would you mind telling me the reported TGI of each entry?

As a guide, the following entries are already answered.
{"compound": "CC(C)C(=O)N1C(=O)O[C@@H](c2ccccc2)[C@H]1C", "test target": "SNB-75 CNS", "TGI": "> 100 µM"}
{"compound": "COc1ccc2c(c1)c(=O)c1c(NCCN(C)C)ccc3c(=O)n(CCN(C)C)c(=O)n2c31", "test target": "SNB-75 CNS", "TGI": "0.719 µM"}
{"compound": "Clc1ccc(C2c3ccccc3-c3nccn32)c(Cl)c1 (stereo not drawn)", "test target": "SNB-75 CNS", "TGI": "23.7 µM"}
{"compound": "CC(=O)OC/C=C(\\C)CCC(Br)C(C)(C)Br (stereo not drawn)", "test target": "SNB-75 CNS", "TGI": "> 10 µM"}
{"compound": "COc1ccc(P2(=S)Oc3ccc(C(c4ccccc4)(c4ccccc4)c4ccccc4)cc3O2)cc1 (stereo not drawn)", "test target": "SNB-75 CNS", "TGI": "26.8 µM"}

// input: 3 compounds below; output: TGI for each
1. Cc1ccc(C2c3c(n(C)c(=O)n(C)c3=O)OC(N(C)C)(N(C)C)C2(F)F)cc1 (stereo not drawn)
2. CCCCNc1nc(N)nc(Nc2ccc(Br)cc2)c1N=O
3. Cc1cc(-c2no[n+]([O-])c2-c2cc(C)sc2S(C)(=O)=O)c(S(C)(=O)=O)s1

1: > 100 µM; 2: > 100 µM; 3: > 100 µM

---

# Test system: SR leukemia
# assay text: NCI tumour cell line growth inhibition, 48 h
Please go through the items and note down their TGI.
Numbers only, in µM.

{"compound": "CCOC(=O)C1=C(C)N(c2ccc(OC)cc2)C2(O)C=CC(=O)C3C(=O)N(c4ccccc4)C(=O)C132 (stereo not given)", "result": 5.26}
{"compound": "CC(=O)N=C1C=C(NC(C)=O)C(=O)c2ccccc21", "result": 4.06}

Known value: SR leukemia TGI of the compound `O=C(N=C1N(c2ccccc2)C(=O)C(=O)N1c1ccccc1)c1ccccc1` equals 41.4

---

# Tested on: HCC-2998 colon
# assay text: NCI tumour cell line growth inhibition, 48 h
Exercise: state measured TGI for each of the molecules provided.
Answers are plain numbers, in µM.

{"chemical smiles": "O=Cc1cc2c(s1)C(=O)c1sccc1C2=O", "measured attribute": "TGI", "quantity unit": "µM", "result": 3.1}

Looking up `O=C(Nc1cccc(-c2cccc(F)c2)c1)C1CCN(Cc2cccc3cccnc23)CC1` , I see its TGI listed as 3.29

---

# Tested on: HL-60(TB) leukemia
# assay text: NCI tumour cell line growth inhibition, 48 h; in the data active = GI50 below about 0.43 µM; inactive = the rest
Use one of these outcomes when replying: active, inactive

Worked examples, 2 compounds total:
{"compound": "Cn1cc(C2=C(c3cn(CCSC(=N)N)c4ccccc34)C(=O)NC2=O)c2ccccc21", "answer label": "inactive"}
{"compound": "COC(=O)[C@@H](C[C@H](Cc1ccccc1)NC(=O)c1csc([C@@H](C[C@H](C(C)C)N(C)C(=O)[C@@H](NC(=O)[C@H]2CCCCN2C)C(C)C)OC(C)=O)n1)NC(=O)OCc1ccccc1", "answer label": "active"}

State the result this test recorded for Clc1ccc(C2c3ccccc3-c3nccn32)c(Cl)c1 (stereo not drawn) .
inactive

Per the records of this test, what outcome belongs to CC1CN1C1=CC(=O)c2c(c(CO)cn2C)C1=O (stereo not drawn) ?
inactive

Test call for this compound, please: `CCOC(=O)/C=C/C1=C(c2csc3ccccc23)c2ccccc2CC1`
inactive

Any idea what this test logged for `Cc1c2cnccc2c(C)c2c1c1cc(CO)ccc1n2C` ?
active

Hi, do you know how `FC(F)(F)c1ccc(-c2cncn2-c2ccccc2)cc1` came out in this test?
inactive

Entry `O=C(N/N=C\c1c(O)ccc2ccccc12)C1CC1` : call = ?
inactive

So what was the verdict on `FC(F)(F)c1cccc(Nc2nc3ccccc3nc2Nc2cccc(C(F)(F)F)c2)c1` in this test?
inactive

Look up the recorded call for `COc1ccc(S(=O)(=O)Nc2cc(/C=C\c3cc(OC)c(OC)c(OC)c3)cc(OC)c2OC)cc1` in this test.
active
